Each recorded value in this set is attributed to PubChem BioAssay AID2061305.

The reader will find reported Potency values listed item by item below.
measurement.description: Identification of antibody-drug conjugate (ADC) payloads which are substrates of ATP-binding cassette drug efflux transporters: ABCB1-HeLa-KB-3-1 cell line
experimental.conditions: KB-3-1 (HeLa derivative) viability, CellTiter-Glo, 48 h
Inconclusive results are not listed. Calls of active or inactive are those of the source. Calls come from the whole dose curve; as a rule, active = well fitted inhibition curve with a large enough effect; inconclusive = small, poorly fitted or top-dose-only effect; inactive = flat fitted curve, though single readings scatter.

[in] Which measured Potency value corresponds to CN(C)CCOc1ccc2[nH]c(C(=O)N3C[C@@H](CCl)c4c3cc(O)c3ccccc43)cc2c1 ?
[out] 0.3 nM (active)

----------
The reader will find reported Potency values listed item by item below.
measurement.description: Identification of antibody-drug conjugate (ADC) payloads which are substrates of ATP-binding cassette drug efflux transporters: ABCB1-HeLa-KB-3-1 cell line
experimental.conditions: KB-3-1 (HeLa derivative) viability, CellTiter-Glo, 48 h
Results filed as inconclusive are left out. Calls of active or inactive are those of the source. The call rests on the fitted dose curve; in most records, active means well fitted inhibition curve with a large enough effect; inconclusive means small, poorly fitted or top-dose-only effect; inactive means flat fitted curve, though single readings scatter.

Would you please look over these solved cases?
- COC(=O)c1cc2c3c(cc(O)c2[nH]1)N(C(=O)c1cc2cc(OC)c(OC)c(OC)c2[nH]1)CC3CCl (stereo not given): 0.5 nM (active)
- CCN[C@H]1CO[C@@H](O[C@H]2[C@H](O[C@H]3C#C/C=C\C#C[C@]4(O)CC(=O)C(NC(=O)OC)=C3/C4=C\CSSSC)O[C@H](C)[C@@H](NO[C@H]3C[C@H](O)[C@H](SC(=O)c4c(C)c(I)c(O[C@@H]5O[C@@H](C)[C@H](O)[C@@H](OC)[C@H]5O)c(OC)c4OC)[C@@H](C)O3)[C@@H]2O)C[C@@H]1OC: 1.3 nM (active)
- COc1cc2cc(c1Cl)N(C)C(=O)C[C@H](O)[C@]1(C)O[C@H]1[C@H](C)C1C[C@@](O)(NC(=O)O1)[C@H](OC)/C=C/C=C(\C)C2: 4720 nM (active)
- CC[C@H](C)[C@@H]([C@H](N)CC(=O)N1CCC[C@H]1[C@H](OC)[C@@H](C)C(=O)N[C@@H](Cc1ccccc1)c1nccs1)N(C)C(=O)[C@@H](NC(=O)[C@@H](NC)C(C)C)C(C)C: 0.1 nM (active)

Consider the additional compound presented here.
[in] Which measured Potency value corresponds to CC[C@H](C)[C@@H]([C@H](N)CC(=O)N1CCC[C@H]1[C@H](OC)[C@@H](C)C(=O)N[C@@H](Cc1ccccc1)c1nccs1)N(C)C(=O)[C@@H](NC(=O)[C@H](C(C)C)N(C)C)C(C)C ?
[out] 0.0748 nM (active)
